- study_target: T1, recombinant human IL-31 (hIL-31, BHK produced, A1277F, zcytor17lig CEE) (human, UniProt Q6EBC2 24-164)
- T1 construct: also called recombinant hIL-31
- T1 sequence: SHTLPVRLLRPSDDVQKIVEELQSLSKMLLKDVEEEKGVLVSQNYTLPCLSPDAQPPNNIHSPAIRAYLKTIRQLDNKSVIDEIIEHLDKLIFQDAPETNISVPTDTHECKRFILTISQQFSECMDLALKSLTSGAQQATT
- assay_explanation: SPR (Biacore), against parent 292.12.3.1
// Relative potency loss (kd) lookup, one value per entry

Worked cases, answers included:
humanized 292.12.3.1 construct clone 13 (12VH1-gly + HC(F29L, M69L, R71A, T73K, V78A) + LC(fback)) (antibody, human IgG4, V domains shown) VH: QVQLVQSGAEVKKPGASVKVSCKASGYTLTRYWMQWVRQAPGQGLEWMGAIYPGDGDTRYSQKFQGRVTLTADKSISTAYMELSSLRSEDTAVYYCARPDGYYAAPYGMDYWGQGTLVTVSS VL: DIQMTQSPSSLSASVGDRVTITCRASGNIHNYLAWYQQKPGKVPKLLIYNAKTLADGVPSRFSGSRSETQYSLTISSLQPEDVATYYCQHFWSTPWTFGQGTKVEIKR : ~50 x to parent
humanized 292.12.3.1 construct clone 29 (12VH1-gly + HC(F29L, T73K, R94F) + LC(F71Y)) (antibody, human IgG4, V domains shown) VH: QVQLVQSGAEVKKPGASVKVSCKASGYTLTRYWMQWVRQAPGQGLEWMGAIYPGDGDTRYSQKFQGRVTMTRDKSISTVYMELSSLRSEDTAVYYCAFPDGYYAAPYGMDYWGQGTLVTVSS VL: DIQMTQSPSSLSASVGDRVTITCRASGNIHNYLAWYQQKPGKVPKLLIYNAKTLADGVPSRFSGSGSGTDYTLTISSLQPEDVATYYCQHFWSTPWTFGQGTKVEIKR : ~1.5 x to parent

Let us examine a further case.
Request: Returns the measured Relative potency loss (kd) for the input binder. Input: humanized 292.12.3.1 construct clone 23 (12VH5-gly + HC(fback) + LC(D70Q, F71Y, T72S)) (antibody, human IgG4, V domains shown) VH: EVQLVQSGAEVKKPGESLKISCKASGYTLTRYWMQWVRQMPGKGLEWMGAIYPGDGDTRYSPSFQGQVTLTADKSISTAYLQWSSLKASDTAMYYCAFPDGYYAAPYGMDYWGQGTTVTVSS VL: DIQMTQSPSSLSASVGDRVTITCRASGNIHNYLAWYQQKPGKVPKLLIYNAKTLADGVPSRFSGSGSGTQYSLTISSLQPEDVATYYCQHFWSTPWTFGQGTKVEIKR
Response: ~1.5 x to parent
